The measurements presented in this section are drawn from paper PMC12655637.

For each record, write down the corresponding activity at 10 µM.
- Test system: K-562
- Protocol Description: NCI-60 screening, one-dose (10 µM) and five-dose, SRB
- Type: cell-based, human
- Measurement Setup: Homo sapiens, K562, 10 μM; K-562, Leukemia; read-out: Growth percentage
Numbers only, in %.

For orientation, consider the following solved cases.
Cc1nc(SCC(=O)N2CCN(c3cc4c(cc3F)c(=O)c(C(=O)O)cn4C3CC3)CC2)sc1C(=O)/C=C/c1ccc(N(C)C)cc1 : 61.3
Cc1nc(SCC(=O)N2CCN(c3cc4c(cc3F)c(=O)c(C(=O)O)cn4C3CC3)CC2)sc1C(=O)/C=C/c1ccc(Br)cc1 : 96.2
Cc1nc(SCC(=O)N2CCN(c3cc4c(cc3F)c(=O)c(C(=O)O)cn4C3CC3)CC2)sc1C(=O)/C=C/c1cccc([N+](=O)[O-])c1 : 29.3
Cc1nc(SCC(=O)N2CCN(c3cc4c(cc3F)c(=O)c(C(=O)O)cn4C3CC3)CC2)sc1C(=O)/C=C/c1ccc([N+](=O)[O-])cc1 : 28.9

Please give activity at 10 µM for each item listed below.
1. COc1cccc(/C=C/C(=O)c2sc(SCC(=O)N3CCN(c4cc5c(cc4F)c(=O)c(C(=O)O)cn5C4CC4)CC3)nc2C)c1OC
2. Cc1nc(SCC(=O)N2CCN(c3cc4c(cc3F)c(=O)c(C(=O)O)cn4C3CC3)CC2)sc1C(=O)/C=C/c1ccc(F)cc1
3. COc1ccc(/C=C/C(=O)c2sc(SCC(=O)N3CCN(c4cc5c(cc4F)c(=O)c(C(=O)O)cn5C4CC4)CC3)nc2C)cc1
4. CC(=O)c1sc(SCC(=O)N2CCN(c3cc4c(cc3F)c(=O)c(C(=O)O)cn4C3CC3)CC2)nc1C
5. Cc1nc(SCC(=O)N2CCN(c3cc4c(cc3F)c(=O)c(C(=O)O)cn4C3CC3)CC2)sc1C(=O)/C=C/c1ccc(Cl)cc1

(A)
1. 133
2. 98.2
3. 98.3
4. 123
5. 93.1
